- Assay Target: SpLsb1
- Assay Text: SPOT peptide array binding signal intensity (averaged, normalized) (arbitrary units (background-subtracted, floor 0; scale differs between SH3 domains)); higher = stronger binding of the SH3 domain to the peptide
Label scheme for SPOT peptide array binding signal intensity: lower than 40 is Not fulfilled, 40 and above is Fulfilled.

binder=DRIRMFIRFPKFLLE category_label="Not fulfilled"

input: Has SAPDIPPRSPNRNAH a recorded SPOT peptide array binding signal intensity greater than or equal to 40?
output: Fulfilled

input: Has RLSFFFPLDPAYIRN a recorded SPOT peptide array binding signal intensity greater than or equal to 40?
output: Not fulfilled
